Target: Histamine H3 receptor (Cavia porcellus, UniProt Q9JI35)
Sequence (Q9JI35 whole entry): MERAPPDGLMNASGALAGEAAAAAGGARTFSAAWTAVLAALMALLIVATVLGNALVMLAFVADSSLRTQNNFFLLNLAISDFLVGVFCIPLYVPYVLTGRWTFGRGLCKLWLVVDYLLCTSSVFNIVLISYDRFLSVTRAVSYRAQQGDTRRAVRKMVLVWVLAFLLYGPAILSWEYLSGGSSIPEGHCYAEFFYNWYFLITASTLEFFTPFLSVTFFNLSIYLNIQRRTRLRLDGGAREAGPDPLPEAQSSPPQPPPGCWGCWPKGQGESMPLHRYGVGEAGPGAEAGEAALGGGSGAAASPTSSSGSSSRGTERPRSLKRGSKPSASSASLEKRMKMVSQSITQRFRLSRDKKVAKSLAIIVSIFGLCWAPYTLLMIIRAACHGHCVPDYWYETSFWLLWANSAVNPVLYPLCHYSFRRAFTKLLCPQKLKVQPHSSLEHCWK
Experiment: In vitro histamine H3 receptor antagonist activity was determined on guinea pig jejunum
Type: functional, tissue-based
Settings: read-out: pA2 (converted)
Each item that follows carries a reported Kb.
Readout: Kb

> print(dat)
                            smiles.structure                                       tgt  measurement
 1  Fc1cccc(C/N=C(\S)N2CCC(c3c[nH]cn3)CC2)c1  Histamine H3 receptor (Cavia porcellus, UniProt Q9JI35)       363 nM
 2     S=C(NCc1ccccc1Cl)N1CCC(c2cnc[nH]2)CC1  Histamine H3 receptor (Cavia porcellus, UniProt Q9JI35)      6.17 nM
 3   S=C(NCc1cccc(Cl)c1)N1CCC(c2c[nH]cn2)CC1  Histamine H3 receptor (Cavia porcellus, UniProt Q9JI35)      38.9 nM
 4    Fc1ccccc1C/N=C(\S)N1CCC(c2c[nH]cn2)CC1  Histamine H3 receptor (Cavia porcellus, UniProt Q9JI35)       912 nM
 5   S=C(NCc1ccc(Cl)cc1)N1CCC(c2c[nH]cn2)CC1  Histamine H3 receptor (Cavia porcellus, UniProt Q9JI35)      61.7 nM
 6     S=C(NCc1ccccc1Br)N1CCC(c2c[nH]cn2)CC1  Histamine H3 receptor (Cavia porcellus, UniProt Q9JI35)      14.5 nM
 7  CC(C)(C)c1ccccc1C/N=C(\S)N1CCC(c2c[nH]cn2)CC1  Histamine H3 receptor (Cavia porcellus, UniProt Q9JI35)      28.8 nM
 8      S=C(NCc1ccccc1I)N1CCC(c2c[nH]cn2)CC1  Histamine H3 receptor (Cavia porcellus, UniProt Q9JI35)      7.41 nM
 9    S=C(NCc1cccc(I)c1)N1CCC(c2c[nH]cn2)CC1  Histamine H3 receptor (Cavia porcellus, UniProt Q9JI35)      15.8 nM
10    S=C(NCc1ccc(I)cc1)N1CCC(c2c[nH]cn2)CC1  Histamine H3 receptor (Cavia porcellus, UniProt Q9JI35)       166 nM
11       S=C(NCc1ccccc1)N1CCC(c2c[nH]cn2)CC1  Histamine H3 receptor (Cavia porcellus, UniProt Q9JI35)      47.9 nM
12  Fc1ccc(C/N=C(\S)N2CCC(c3c[nH]cn3)CC2)cc1  Histamine H3 receptor (Cavia porcellus, UniProt Q9JI35)       562 nM
